tested on: Key Grass and Sedge Weeds as well as Grass Crops; experiment: Post-Emergent Test II: postemergent herbicidal activity, visual rating after 14 d (Table 8); type: in vivo; details: post-emergence, 336 h, maize, corn (Zea mays), 35 g ai/ha, read-out: Visual Growth Reduction (%) 14 Days After Application ZEAMX
assay-readout: pest or weed control at 35 g/ha

[Q] GET /values?readout=pest or weed control at 35 g/ha&item= `COC(=O)c1nc(-c2ccc3c(c2F)OC(F)(F)O3)c(Cl)c(N)c1Cl`
[A] 0 to 29%

[Q] GET /values?readout=pest or weed control at 35 g/ha&item= `Nc1cc(-c2cc3c(cc2F)OC(F)(F)O3)nc(C(=O)O)c1Cl`
[A] 60 to 74%

[Q] GET /values?readout=pest or weed control at 35 g/ha&item= `COC(=O)c1nc(-c2cc3c(cc2F)OCO3)cc(N)c1Cl`
[A] 45 to 59%

[Q] GET /values?readout=pest or weed control at 35 g/ha&item= `COC(=O)c1nc(-c2ccc(I)c3c2OC(F)(F)O3)c(F)c(N)c1Cl`
[A] 0 to 29%

[Q] GET /values?readout=pest or weed control at 35 g/ha&item= `Nc1c(F)c(-c2ccc(Cl)c3c2OC(F)(F)O3)nc(C(=O)O)c1Cl`
[A] 45 to 59%

[Q] GET /values?readout=pest or weed control at 35 g/ha&item= `COC(=O)c1nc(-c2ccc3c(c2C)OC(F)(F)O3)cc(N)c1Cl`
[A] 0 to 29%

[Q] GET /values?readout=pest or weed control at 35 g/ha&item= `Nc1c(F)c(-c2ccc(Br)c3c2OC(F)(F)O3)nc(C(=O)O)c1Cl`
[A] 45 to 59%

[Q] GET /values?readout=pest or weed control at 35 g/ha&item= `Nc1c(F)c(-c2cccc3c2OCO3)nc(C(=O)O)c1Cl`
[A] 0 to 29%

[Q] GET /values?readout=pest or weed control at 35 g/ha&item= `COC(=O)c1nc(-c2ccc(F)c3c2OC(F)(F)O3)c(F)c(N)c1Cl`
[A] 0 to 29%

Each recorded value in this set is attributed to patent US9149038B2.
